- experimental.system: guinea pig brain membranes
- procedure.details: Binding test with guinea pig brain membranes
- condition.summary: tested on guinea pig brain membranes; read-out: IC50 = 100 μM
Where a SMILES comes first, the peptide text is derived from it.
readout.name: IC50 (nM)
Note: unit nM is implicit; provide only the numeric part.

compound | reported
CC[C@H](C)[C@H](NC(=O)CNC(=O)[C@H](CCCCN)NC(=O)[C@H](CO)NC(=O)[C@H](Cc1ccc(O)cc1)NC(=O)[C@@H](N)CC(=O)O)C(=O)N[C@H](C(=O)N[C@H](C(=O)N[C@H](C(=O)N[C@@H](CCCCN)C(=O)N[C@@H](CC(N)=O)C(=O)N[C@@H](CC(=O)O)C(N)=O)[C@@H](C)O)C(C)C)[C@@H](C)O [Example 62, H-DYSKGITVTKND-NH2] (H-DYSKGITVTKND-NH2) | 670

Would you mind telling me what IC50 value was observed for CSCC[C@H](NC(=O)[C@@H](NC(=O)[C@H](CCC(=O)O)NC(=O)[C@H](CCC(=O)O)NC(=O)[C@H](CC(C)C)NC(=O)[C@H](CCC(N)=O)NC(=O)[C@@H](N)CC(C)C)[C@@H](C)O)C(=O)N1CCC[C@H]1C(=O)N[C@@H](CO)C(=O)N1CCC[C@H]1C(=O)N[C@@H](Cc1ccc(O)cc1)C(N)=O [Example 14, H-LQLEETMPSPY-NH2] (H-LQLEETMPSPY-NH2) ?
860

What do you have for CC(C)[C@H](NC(=O)[C@@H](NC(=O)[C@H](CCCCN)NC(=O)[C@@H]1CCCN1C(=O)[C@@H](NC(=O)[C@@H](NC(=O)[C@H](C)NC(=O)[C@H](CCCNC(=N)N)NC(=O)[C@@H]1CCCN1)[C@@H](C)O)[C@@H](C)O)[C@@H](C)O)C(=O)N[C@@H](CCCNC(=N)N)C(=O)N[C@@H](CO)C(N)=O [Example 42, H-PRATTPKTVRS-NH2] (H-PRATTPKTVRS-NH2) ?
560

Follow-up item: CSCC[C@H](NC(=O)CNC(=O)[C@H](Cc1ccccc1)NC(=O)[C@H](CC(N)=O)NC(=O)[C@H](CCCNC(=N)N)NC(=O)[C@H](CC(C)C)NC(=O)[C@@H](NC(=O)[C@H](CCSC)NC(=O)[C@H](CC(C)C)NC(=O)[C@H](CO)NC(=O)[C@@H](N)Cc1ccccc1)[C@@H](C)O)C(N)=O [Example 28, H-FSLMTLRNFGM-NH2] (H-FSLMTLRNFGM-NH2)
400

Now try CC[C@H](C)[C@H](NC(=O)[C@H](CO)NC(=O)[C@H](Cc1ccccc1)NC(=O)[C@@H]1CCCN1C(=O)[C@@H](NC(=O)[C@H](Cc1ccccc1)NC(=O)[C@H](C)NC(=O)[C@H](CC(=O)O)NC(=O)[C@@H](N)CO)C(C)C)C(N)=O [Example 22, H-SDAFVPFSI-NH2] (H-SDAFVPFSI-NH2) .
2800

###

- experimental.system: guinea pig brain membranes
- procedure.details: Binding test with guinea pig brain membranes
- condition.summary: tested on guinea pig brain membranes; read-out: IC50 = 100 μM
Where a SMILES comes first, the peptide text is derived from it.
readout.name: pIC50
By convention, pIC50 is the negative base-10 log of a molar concentration.

compound | readout.name | reported
CSCC[C@H](NC(=O)[C@H](CCC(N)=O)NC(=O)[C@H](CC(C)C)NC(=O)[C@H](CCCCN)NC(=O)[C@@H]1CCCN1C(=O)[C@H](CC(=O)O)NC(=O)[C@H](CCC(N)=O)NC(=O)[C@@H](NC(=O)[C@@H](N)C(C)C)[C@@H](C)O)C(N)=O [Example 8, H-VTQDPKLQM-NH2] (H-VTQDPKLQM-NH2) | pIC50 | 5.38

Turning now to a further compound:
Consider the compound CC[C@H](C)[C@H](NC(=O)CNC(=O)[C@H](CCC(=O)O)NC(=O)[C@H](CC(C)C)NC(=O)[C@@H](N)CO)C(=O)N[C@@H](Cc1ccccc1)C(=O)N[C@@H](CC(=O)O)C(=O)N[C@@H](CC(=O)O)C(=O)N[C@H](C(=O)N[C@H](C(=O)N1CCC[C@H]1C(=O)N[C@@H](CC(=O)O)C(N)=O)C(C)C)[C@@H](C)CC [Example 20, H-SLEGIFDDIVPD-NH2] (H-SLEGIFDDIVPD-NH2) and give its measured pIC50.
6.46

###

A collection of molecules and their measured IC50
- experimental.system: guinea pig brain membranes
- procedure.details: Binding test with guinea pig brain membranes
- condition.summary: tested on guinea pig brain membranes; read-out: IC50 = 100 μM
Where a SMILES comes first, the peptide text is derived from it.
Entry rule: numbers only, all in nM.

Observe how each entry below is paired with its result.
molecule | experimental.system | IC50 (nM)
CSCC[C@H](NC(=O)[C@H](CCC(N)=O)NC(=O)[C@H](Cc1ccccc1)NC(=O)CNC(=O)[C@H](CO)NC(=O)[C@@H](N)CC(=O)O)C(=O)N[C@@H](CC(N)=O)C(=O)N[C@@H](CCC(N)=O)C(=O)N[C@@H](CC(C)C)C(=O)N[C@@H](CCCNC(=N)N)C(N)=O [Example 13, H-DSGFQMNQLR-NH2] (H-DSGFQMNQLR-NH2) | guinea pig brain membranes | 90
CC[C@H](C)[C@H](NC(=O)[C@@H](N)C(C)C)C(=O)N[C@@H](CCC(N)=O)C(=O)N[C@@H](Cc1ccc(O)cc1)C(=O)N[C@@H](CC(C)C)C(=O)N[C@@H](C)C(=O)N[C@@H](Cc1c[nH]cn1)C(=O)N[C@H](C(=O)N[C@@H](C)C(=O)N[C@@H](CO)C(=O)N[C@@H](CO)C(=O)N[C@@H](Cc1c[nH]cn1)C(=O)N[C@@H](CCCCN)C(N)=O)C(C)C [Example 63, H-VIQYLAHVASSHK-NH2] (H-VIQYLAHVASSHK-NH2) | guinea pig brain membranes | 20

May I ask what IC50 has been recorded for C[C@@H](O)[C@H](NC(=O)[C@@H](N)CCC(=O)O)C(=O)N[C@@H](CCCCN)C(=O)N[C@@H](Cc1c[nH]cn1)C(=O)NCC(=O)NCC(=O)N[C@@H](Cc1c[nH]cn1)C(=O)N[C@@H](CCCCN)C(=O)N[C@@H](CC(N)=O)C(N)=O [Example 49, H-ETKHGGHKN-NH2] (H-ETKHGGHKN-NH2) ?
330

###

- experimental.system: guinea pig brain membranes
- procedure.details: Binding test with guinea pig brain membranes
- condition.summary: tested on guinea pig brain membranes; read-out: IC50 = 100 μM
Where a SMILES comes first, the peptide text is derived from it.
readout.name: pIC50
Scale note: pIC50 = -log10(concentration in M).

molecule | pIC50
CSCC[C@H](N)C(=O)N[C@@H](CC(=O)O)C(=O)N[C@H](C(=O)NCC(=O)NCC(=O)N[C@@H](CC(C)C)C(=O)N[C@@H](CO)C(=O)N[C@@H](CC(=O)O)C(=O)N1CCC[C@H]1C(=O)N[C@@H](Cc1ccc(O)cc1)C(=O)N[C@H](C(=O)N[C@@H](CCCCN)C(=O)N[C@H](C(=O)N[C@@H](Cc1c[nH]cn1)C(=O)N[C@@H](CC(C)C)C(=O)N[C@@H](CC(C)C)C(=O)N[C@@H](CCC(N)=O)C(=O)NCC(N)=O)C(C)C)C(C)C)C(C)C [Example 10, H-MDVGGLSDPYVKVHLLQG-NH2] (H-MDVGGLSDPYVKVHLLQG-NH2) | 7.52

Now for a further molecule.
Any idea what pIC50 was measured for CSCC[C@H](NC(=O)[C@@H](N)CC(=O)O)C(=O)N[C@H](C(=O)N[C@H](C(=O)N[C@@H](Cc1ccccc1)C(=O)N[C@@H](CC(C)C)C(=O)N[C@@H](CC(=O)O)C(=O)NCC(=O)NCC(=O)N[C@@H](CCC(N)=O)C(=O)N[C@@H](CC(C)C)C(=O)NCC(=O)N[C@H](C(=O)N[C@@H](CC(C)C)C(=O)N[C@H](C(N)=O)C(C)C)[C@@H](C)O)C(C)C)C(C)C [Example 18, H-DMVVFLDGGQLGTLV-NH2] (H-DMVVFLDGGQLGTLV-NH2) ?
6.10

###

- experimental.system: guinea pig brain membranes
- procedure.details: Binding test with guinea pig brain membranes
- condition.summary: tested on guinea pig brain membranes; read-out: IC50 = 100 μM
Where a SMILES comes first, the peptide text is derived from it.
readout.name: pIC50
On this scale, pIC50 is minus log10 of a concentration expressed in M (mol/L).

These solved cases illustrate the format of a correct answer.
compound | experimental.system | pIC50
CC[C@H](C)[C@H](NC(=O)[C@H](CC(N)=O)NC(=O)[C@H](Cc1c[nH]cn1)NC(=O)[C@@H](N)CC(C)C)C(=O)N[C@@H](CC(C)C)C(=O)NCC(=O)N[C@H](C(=O)N[C@@H](CCC(=O)O)C(=O)N[C@H](C(=O)NCC(=O)NCC(=O)N1CCC[C@H]1C(=O)NCC(N)=O)[C@@H](C)O)C(C)C [Example 33, H-LHNILGVETGGPG-NH2] (H-LHNILGVETGGPG-NH2) | guinea pig brain membranes | 7.00
CSCC[C@H](NC(=O)[C@H](C)NC(=O)[C@@H](NC(=O)[C@@H](N)CCC(=O)O)C(C)C)C(=O)N[C@@H](CC(=O)O)C(=O)N[C@@H](CC(=O)O)C(=O)N[C@@H](Cc1c[nH]cn1)C(=O)N[C@@H](CCCCN)C(=O)N[C@@H](CC(C)C)C(=O)N[C@@H](CO)C(=O)N[C@@H](CC(C)C)C(=O)N[C@@H](CC(=O)O)C(=O)N[C@@H](CCC(=O)O)C(=O)N[C@@H](CC(C)C)C(N)=O [Example 58, H-EVAMDDHKLSLDEL-NH2] (H-EVAMDDHKLSLDEL-NH2) | guinea pig brain membranes | 6.07

Next, consider the following compound.
Which value of pIC50 has been reported for CC(C)[C@H](NC(=O)[C@H](C)NC(=O)[C@@H](NC(=O)[C@H](Cc1c[nH]c2ccccc12)NC(=O)[C@@H]1CCCN1)[C@@H](C)O)C(=O)N[C@@H](CC(=O)O)C(=O)N[C@H](C(=O)N[C@@H](CO)C(=O)N[C@H](C(=O)N[C@@H](CC(=O)O)C(N)=O)C(C)C)[C@@H](C)O [Example 51, H-PWTAVDTSVD-NH2] (H-PWTAVDTSVD-NH2) in the records?
6.85
